Assignment: determine reported GI50 for the given compounds.
- ASSAY METHOD TEXT: Growth inhibition of human A375P cells after 24 hrs by MTT assay
- Format: functional
Answers are plain numbers, in µM.

COc1ccc(Cn2ncc3c2NC(=O)CC(c2cccc(NC(=O)Nc4cccc(C(F)(F)F)c4)c2)=N3)cc1
0.25

Now look at this one.
Quick one: GI50 for O=C1CC(c2ccc(NC(=O)c3ccc(N4CCOCC4)c(C(F)(F)F)c3)cc2)=Nc2cnn(Cc3ccccc3)c2N1 ? 16.4

###

- ASSAY TARGET: Phosphatidylinositol 4,5-bisphosphate 3-kinase catalytic subunit alpha isoform (Homo sapiens, UniProt P42336)
- Sequence (P42336 whole entry, canonical isoform): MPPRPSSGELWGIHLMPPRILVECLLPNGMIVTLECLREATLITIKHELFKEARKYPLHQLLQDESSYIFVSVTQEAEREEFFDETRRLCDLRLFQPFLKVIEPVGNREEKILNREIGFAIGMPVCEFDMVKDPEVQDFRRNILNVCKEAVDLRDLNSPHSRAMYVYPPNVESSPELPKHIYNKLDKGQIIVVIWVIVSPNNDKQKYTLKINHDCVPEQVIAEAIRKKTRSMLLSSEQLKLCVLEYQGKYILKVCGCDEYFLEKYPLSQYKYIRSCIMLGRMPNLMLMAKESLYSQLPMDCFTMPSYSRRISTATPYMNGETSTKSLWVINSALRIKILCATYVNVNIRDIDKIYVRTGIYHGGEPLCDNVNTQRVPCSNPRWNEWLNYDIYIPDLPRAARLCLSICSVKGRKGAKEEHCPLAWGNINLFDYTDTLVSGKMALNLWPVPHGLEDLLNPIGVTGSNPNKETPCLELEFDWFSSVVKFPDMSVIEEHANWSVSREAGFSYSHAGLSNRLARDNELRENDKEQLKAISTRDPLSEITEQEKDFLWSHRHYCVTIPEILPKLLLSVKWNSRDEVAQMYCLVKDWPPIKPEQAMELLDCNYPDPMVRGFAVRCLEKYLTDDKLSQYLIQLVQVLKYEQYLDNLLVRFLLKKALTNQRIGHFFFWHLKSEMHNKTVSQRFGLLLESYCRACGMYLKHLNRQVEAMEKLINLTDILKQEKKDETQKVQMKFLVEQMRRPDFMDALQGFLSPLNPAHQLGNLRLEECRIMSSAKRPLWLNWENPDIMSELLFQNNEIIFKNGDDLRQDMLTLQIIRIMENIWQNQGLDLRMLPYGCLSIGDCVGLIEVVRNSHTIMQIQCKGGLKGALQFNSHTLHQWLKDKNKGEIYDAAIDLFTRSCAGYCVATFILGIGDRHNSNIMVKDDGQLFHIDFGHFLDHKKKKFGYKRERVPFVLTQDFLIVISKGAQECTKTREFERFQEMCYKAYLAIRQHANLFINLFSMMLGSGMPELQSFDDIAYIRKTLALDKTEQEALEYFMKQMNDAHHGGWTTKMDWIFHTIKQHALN
- ASSAY METHOD TEXT: Inhibition of PI3Kalpha
PROPERTY MEASURED: pIC50
One number for each entry, as −log10 of the molar value.

Quick one: pIC50 for O=C1CC(c2cccc(NC(=O)c3ccc(Cl)c(C(F)(F)F)c3)c2)=Nc2cnn(Cc3ccccc3)c2N1 ? 5.67

Hello, the source for this data is ChEMBL document CHEMBL1914457, in case you need it.
